Readings of mass density for the listed molecules
conditions: 323.15 K; 101.33 kPa; Liquid; Vibrating tube method
Could you give me the number in kg/m3? Just the number is fine.

Here is how some molecules turned out for mass density.
[[record]]
molecule = "CCn1cc[n+](C)c1.N#C[S-] [1-ethyl-3-methylimidazolium thiocyanate]"
property = "mass density"
numeric_readout = 1100.3

[[record]]
molecule = "CCCCn1cc[n+](C)c1.O=S(=O)([N-]S(=O)(=O)C(F)(F)C(F)(F)C(F)(F)C(F)(F)F)C(F)(F)C(F)(F)C(F)(F)C(F)(F)F"
property = "mass density"
numeric_readout = 1581.6

[[record]]
molecule = "CCn1cc[n+](C)c1.N#CN=C=[N-] [1-ethyl-3-methylimidazolium dicyanamide]"
property = "mass density"
numeric_readout = 1084.8


Value of measured mass density for the entry CCn1cc[n+](C)c1.CS(=O)(=O)[O-] [1-ethyl-3-methylimidazolium methanesulfonate] : 1224.8

Value of measured mass density for the entry CCOS(=O)(=O)[O-].CCn1cc[n+](C)c1 [1-ethyl-3-methylimidazolium ethyl sulfate] : 1220.9

Value of measured mass density for the entry `CCC[N+]1(C)CCCC1.O=S(=O)([N-]S(=O)(=O)C(F)(F)F)C(F)(F)F` : 1404.8

====

assay: refractive index (Na D-line) (dimensionless); details: 333.15 K; 101.33 kPa; Liquid; Standard Abbe refractometry
Readings of refractive index for the listed compounds
Just the number.

Here is how some compounds turned out for refractive index.
[[record]]
compound = "CCCCn1cc[n+](C)c1.O=S(=O)([N-]S(=O)(=O)C(F)(F)C(F)(F)C(F)(F)C(F)(F)F)C(F)(F)C(F)(F)C(F)(F)C(F)(F)F"
numeric_readout = 1.37783

[[record]]
compound = "CCC[N+]1(C)CCCC1.O=S(=O)([N-]S(=O)(=O)C(F)(F)F)C(F)(F)F"
numeric_readout = 1.41119

[[record]]
compound = "CCn1cc[n+](C)c1.O=S(=O)([N-]S(=O)(=O)C(F)(F)F)C(F)(F)F"
numeric_readout = 1.41319


Continue with the compound presented below.
Value of measured refractive index for the entry CCn1cc[n+](C)c1.N#C[S-] [1-ethyl-3-methylimidazolium thiocyanate] : 1.54119

====

assay: refractive index (Na D-line) (dimensionless); details: 338.15 K; 101.33 kPa; Liquid; Standard Abbe refractometry
Readings of refractive index for the listed compounds
Just the number.

Here is how some compounds turned out for refractive index.
[[record]]
compound = "CCn1cc[n+](C)c1.CS(=O)(=O)[O-] [1-ethyl-3-methylimidazolium methanesulfonate]"
numeric_readout = 1.48498

[[record]]
compound = "CCn1cc[n+](C)c1.O=S(=O)([N-]S(=O)(=O)C(F)(F)F)C(F)(F)F"
numeric_readout = 1.41177

[[record]]
compound = "CCC[N+]1(C)CCCC1.O=S(=O)([N-]S(=O)(=O)C(F)(F)F)C(F)(F)F"
numeric_readout = 1.40986

[[record]]
compound = "CCCCn1cc[n+](C)c1.O=S(=O)([N-]S(=O)(=O)C(F)(F)C(F)(F)C(F)(F)C(F)(F)F)C(F)(F)C(F)(F)C(F)(F)C(F)(F)F"
numeric_readout = 1.37638

[[record]]
compound = "CCn1cc[n+](C)c1.N#C[S-] [1-ethyl-3-methylimidazolium thiocyanate]"
numeric_readout = 1.53973

[[record]]
compound = "CCn1cc[n+](C)c1.N#C[B-](C#N)(C#N)C#N [1-ethyl-3-methylimidazolium tetracyanoborate]"
numeric_readout = 1.43412

[[record]]
compound = "CCOS(=O)(=O)[O-].CCn1cc[n+](C)c1 [1-ethyl-3-methylimidazolium ethyl sulfate]"
numeric_readout = 1.4685

[[record]]
compound = "CCn1cc[n+](C)c1.N#CN=C=[N-] [1-ethyl-3-methylimidazolium dicyanamide]"
numeric_readout = 1.5003


Value of measured refractive index for the entry CCn1cc[n+](C)c1.O=S(=O)([O-])O [1-ethyl-3-methylimidazolium hydrogen sulfate] : 1.48836

Value of measured refractive index for the entry CCn1cc[n+](C)c1.F[B-](F)(F)F [1-ethyl-3-methylimidazolium tetrafluoroborate] : 1.40211

Taken from the NIST ThermoML archive (doi:10.1021/je201289w).
